Values of IF reported for thymidylate synthase (Lactobacillus casei) appear below.
Property: IF

Molecule	IF
O=C1OC(c2ccc(O)c(Cl)c2)(c2ccc(O)c(Cl)c2)c2cc3ccccc3cc21	0.093
O=C1OC(c2ccc(O)cc2)(c2ccc(O)c3ccccc23)c2ccccc21 (stereo unspecified)	0.529
O=C1OC(c2ccc(O)c(Cl)c2)(c2ccc(O)c(Cl)c2)c2ccc(Br)c3cccc1c23.O=C1OC(c2ccc(O)c(Cl)c2)(c2ccc(O)c(Cl)c2)c2cccc3c(Br)ccc1c23	0.36
O=C1OC(c2ccc(O)cc2)(c2ccc(O)cc2)c2ccc(Br)c3cccc1c23.O=C1OC(c2ccc(O)cc2)(c2ccc(O)cc2)c2cccc3c(Br)ccc1c23	0.112
COc1ccc(C2(c3ccc(OC)cc3)OC(=O)c3cccc4cccc2c34)cc1	0.624
O=C1OC(c2ccc(O)cc2)(c2ccc(O)cc2)c2ccc3c4c(ccc1c24)CC3	0.409
O=C1OC(c2ccc(O)cc2)(c2ccc(O)cc2)c2cc3ccccc3cc21	0.247

A. O=C1OC(c2ccc(O)c(F)c2)(c2ccc(O)c(F)c2)c2cc3ccccc3cc21
B. O=C1OC(c2ccc(O)c(Cl)c2)(c2ccc(O)c(Cl)c2)c2ccccc21
C. O=C1OC(O)(c2ccc(O)c(Cl)c2)c2ccc([N+](=O)[O-])c3cccc1c23 (stereo unspecified)
D. O=C1OC(O)(c2ccccc2O)c2cccc3cccc1c23 (stereo unspecified)
## Input Your job: order these 4 records by IF, ascending. Give the order by naming the labels one after another as requested.
## Output C, A, B, D
